Collected TGI values appear next to each entry.
tested on: T-47D breast; assay: NCI tumour cell line growth inhibition, 48 h
# output: bare number, implied unit µM

Requested read-out: TGI. Entry: C=Cc1cc(OC)c2c(c1)c(=O)oc1c2cc(OC)c2c(O)ccc(C3OC(C(C)O)C(O)C3O)c21 (configuration not stated)
0.08

---

system: NCI-H23 lung; assay: NCI tumour cell line growth inhibition, 48 h; in the data active = GI50 below about 0.43 µM; inactive = the rest
Your response should consist of one outcome taken from true = active, false = inactive

Answered cases to consult:
CCOC(=O)N(O)c1ccc(/C=C/c2ccccc2)cc1 = false
C[C@@H](C[C@H](CCO)c1ccccc1)c1ccc2ccccc2c1 = false
COC(=O)[C@@H](C)C[C@H](Cc1ccccc1)NC(=O)c1csc([C@@H](C[C@H](C(C)C)N(C)C(=O)[C@@H](NC(=O)[C@H]2CCCCN2C)C(C(F)(F)F)C(F)(F)F)OC(C)=O)n1 = true
CC[C@@H](C(=O)[C@@H](C)[C@@H](O)[C@H](C)[C@@H]1O[C@@H]([C@@H](CC)C(=O)O)CC[C@@H]1C)[C@H]1O[C@]2(C=C[C@@H](O)[C@]3(CC[C@@](C)([C@H]4CC[C@](O)(CC)[C@H](C)O4)O3)O2)[C@H](C)C[C@@H]1C = false

Recorded test outcome, item CN(C)CCOc1ccc2c(c1)C(=O)/C(=C\c1ncc([N+](=O)[O-])n1C)C2
true

Also need CNC(=O)c1cc(-c2ccc(F)cc2)cc(-c2ccc(S(=O)(=O)N3CCCC3)cc2)c1N , thanks.
false

---

tested on: HCT-116 colon; assay: NCI tumour cell line growth inhibition, 48 h
Collected GI50 values appear next to each entry.

Example results:
COC(=O)c1cc(C)[nH]c2c(C)cc3nc4ccccc4c3c12 = 10.2 µM
C[C@@H](C[C@H](CCO)c1ccccc1)c1ccc2ccccc2c1 = 1.36 µM
CCSc1nc(N)c2cnn(CC)c2n1 = 5.94 µM

Requested read-out: GI50. Entry: CSc1nc2ccc(C)cc2cc1/C=C1/C=C(c2ccccc2)NC1=O
0.731 µM

Also need COc1ccc(F)cc1-c1ccnc2[nH]c(C3=CCN(C4CCC(CC(=O)O)CC4)CC3)cc12 (stereo not drawn) , thanks.
0.163 µM

Also need COc1ccc2c(c1)C=CC1C2CC[C@]2(C)C(NC(=O)/C=C/c3ccc(O)c(O)c3)CCC12 (stereo partly drawn) , thanks.
4.49 µM

Also need CN(C)CCOc1ccc2c(c1)C(=O)/C(=C\c1ncc([N+](=O)[O-])n1C)C2 , thanks.
0.316 µM

Also need C1CC[N-]CC1.CC(=N\O)/C(C)=N/O.CC(=N\O)/C(C)=N/O.C[CH-]C(C)O.[Co+2] , thanks.
18.2 µM

Also need CCCCCCCCc1cc(O)ccc1O , thanks.
14.7 µM

Also need CNC(=O)c1cc(-c2ccc(F)cc2)cc(-c2ccc(S(=O)(=O)N3CCCC3)cc2)c1N , thanks.
11.6 µM

Also need CNc1nc(-c2ccc3c(N)n[nH]c3c2)cc(N2C[C@@H](C(=O)NC3CCCCC3)CC[C@H]2C)n1 , thanks.
4.4 µM

Also need O=C(N/N=C/c1ccc(N(CCCl)CCCl)cc1)c1ccc(C(=O)N/N=C/c2ccc(N(CCCl)CCCl)cc2)cc1 , thanks.
2.48 µM

Also need COc1ccc(S(=O)(=O)Nc2cc(Sc3cccc4cccnc34)c(O)c3ccccc23)cc1 , thanks.
0.505 µM

---

test system: SF-539 CNS; assay: NCI tumour cell line growth inhibition, 48 h
Collected TGI values appear next to each entry.

Example results:
Cn1c(-c2c(C3=CC(=O)N(c4ccccc4)C3=O)c3ccccc3n2C)cc2ccccc21 = > 100 µM
C[C@@H](C[C@H](CCO)c1ccccc1)c1ccc2ccccc2c1 = 3.11 µM
O=C1Nc2ccccc2SC1=C(C(=O)c1ccccc1)C(=O)c1ccccc1 = > 100 µM

Requested read-out: TGI. Entry: Cc1nc2sc(C(=O)Nc3ccccc3)c(N)c2cc1C(=O)c1ccccc1
> 50 µM

Also need O=[N+]([O-])c1ccc(Nc2cccc3c2[nH]c2c(-c4ccccc4)nccc23)c([N+](=O)[O-])c1 , thanks.
> 100 µM

Also need COc1cc(CCc2ccncc2)cc(OC)c1OC , thanks.
> 100 µM

Also need OCC(S)CS.[Bi] (stereo not given) , thanks.
> 100 µM

Also need Cn1cccc1-c1cc(-c2ccccc2)nc(N)c1C#N , thanks.
> 100 µM

Also need NC(=S)NS(=O)(=O)c1ccc(Cl)cc1 , thanks.
> 100 µM

Also need Cc1nccn1S(=O)(=O)c1ccc(Cl)cc1 , thanks.
> 100 µM

Also need c1ccc(-c2cc3n4c(-c5ccccc5)nn(-c5ccccc5)c4cnc-3n2)cc1 , thanks.
> 50 µM

Also need CC(C)N1[C@@H]2CCCC[C@H]2N(C(C)C)[P+]1=O , thanks.
> 100 µM

Also need COC(=O)[C@@H](C)C[C@H](Cc1ccccc1)NC(=O)c1csc([C@@H](C[C@H](C(C)C)N(C)C(=O)[C@@H](NC(=O)[C@H]2CCCCN2C)C(C(F)(F)F)C(F)(F)F)OC(C)=O)n1 , thanks.
0.154 µM

Also need Cc1nc(-n2nc(-c3ccccc3)cc2-c2ccccc2)sc1C(=O)CC(=O)C(=O)Nc1ccc(O)cc1 , thanks.
> 100 µM

Also need O=C(O)c1cccc(S(=O)(=O)NN2C(=O)CSC2c2c(O)ccc3ccccc23)c1 (stereo not given) , thanks.
55.8 µM

Also need C=Cc1cc(OC)c2c(c1)c(=O)oc1c2cc(OC)c2c(O)ccc(C3OC(C(C)O)C(O)C3O)c21 (stereo not given) , thanks.
0.0527 µM

Also need COC(=O)C(/C(=N\O)C(=O)Nc1ccc(Br)cc1)c1nc2ccccc2[nH]c1=O (stereo not given) , thanks.
58.4 µM

Also need Cc1ccc(C(=O)N/N=C(\N=Nc2ccccc2C(=O)O)c2ccc(N(C)C)cc2)cc1 , thanks.
> 100 µM

Also need COc1cccc(N(CN2C(=O)CCC2OC)C(C)=O)c1 (stereo not given) , thanks.
> 100 µM

Also need Cc1nc(-n2nc(-c3ccccc3)cc2-c2ccccc2)sc1C(=O)/C=C/c1cccc([N+](=O)[O-])c1 , thanks.
22.8 µM

---

system: SK-MEL-28 melanoma; assay: NCI tumour cell line growth inhibition, 48 h; in the data active = GI50 below about 0.43 µM; inactive = the rest
Your response should consist of one outcome taken from yes = active, no = inactive

Recorded test outcome, item CNc1nc(-c2ccc3c(N)n[nH]c3c2)cc(N2C[C@@H](C(=O)NC3CCCCC3)CC[C@H]2C)n1
no

Also need Cc1cn2cc(-c3ccc4c(c3)CC(=O)N4)nc2s1 , thanks.
no

Also need COC(=O)Nc1nc2ccc(C(=O)c3cccs3)cc2[nH]1 , thanks.
yes

Also need CCSc1nc(N)c2cnn(CC)c2n1 , thanks.
no

Also need COc1ccc(S(=O)(=O)Nc2cc(Sc3cccc4cccnc34)c(O)c3ccccc23)cc1 , thanks.
no

---

tested on: A549 NSCLC; test: NCI tumour cell line growth inhibition, 48 h
readout: TGI

CCN1CCC(O)(/C=C/c2ccccc2)C(C(=O)/C=C/c2ccccc2)C1 (configuration not stated) = 16.8 µM
C=CCO[C@H]1CC[C@@]2(C)C(CC[C@]3(C)C2CC=C2[C@@H]4[C@@H](C)C(C)CC[C@]4(C(=O)O)CCC23C)C1(C)C (some centres not stated) = 32.7 µM
CCOC(=O)CCC(NC(=O)c1ccc(Nc2nc3ccccc3nc2C(=O)OCC)s1)C(=O)OCC (configuration not stated) = > 100 µM
CCCCCCCCc1cc(O)ccc1O = > 100 µM
Oc1ccc(O)c(-n2cccn2)c1-n1cccn1 = > 100 µM
O=C(/C=C/c1ccc(Cl)cc1Cl)c1ccc(Cl)cc1Cl = 47.2 µM
CN1C/C(=C\c2ccc(C(=O)O)cc2)C(=O)/C(=C/c2ccc(C(=O)O)cc2)C1 = > 100 µM
COc1ccc(S(=O)(=O)Nc2cc(Sc3cccc4cccnc34)c(O)c3ccccc23)cc1 = 12.8 µM
O=c1onc(Nc2ccccc2)n1-c1ccccc1 = > 100 µM
CN(C)CCOc1ccc2c(c1)C(=O)/C(=C\c1ncc([N+](=O)[O-])n1C)C2 = 5.14 µM

Requested read-out: TGI. Entry: O=C(N/N=C/c1ccc(N(CCCl)CCCl)cc1)c1ccc(C(=O)N/N=C/c2ccc(N(CCCl)CCCl)cc2)cc1
> 100 µM

Also need CC1(C2CCC3(C)C(C2)C3Sc2ccccc2)OCCO1 (configuration not stated) , thanks.
68 µM

Also need CC(=O)/C(=C/N1CCN(C(=O)c2ccco2)C1=S)C(=O)c1ccccc1 , thanks.
26.9 µM

Also need CN(C)Cc1cc(C(C)(C)C)cc(CN(C)C)c1O , thanks.
> 100 µM

---

test system: RXF 393 renal; assay: NCI tumour cell line growth inhibition, 48 h
Collected TGI values appear next to each entry.
# output: bare number, implied unit µM

Requested read-out: TGI. Entry: N#Cc1cc2c(cc1Cl)SC(=Nc1ccccc1)N(S(=O)(=O)c1ccc(Br)s1)S2(=O)=O
45.1

Also need CC(=O)OC1=C(CC(C)(C)C)C(=O)c2ccccc2C1=O , thanks.
82.7

Also need Cc1nc(-n2nc(-c3ccccc3)cc2-c2ccccc2)sc1C(=O)/C=C/c1cccc([N+](=O)[O-])c1 , thanks.
29.8

Also need O=c1[nH]c2ccc(C(F)(F)F)cc2nc1C(F)(F)F , thanks.
36.3

Also need CCCCOc1ccc(S(=O)(=O)/N=C(\NO)Nc2ccc(Cl)cc2)cc1 , thanks.
30.2

Also need C=Cc1cc(OC)c2c(c1)c(=O)oc1c2cc(OC)c2c(O)ccc(C3OC(C(C)O)C(O)C3O)c21 (centres undefined) , thanks.
0.00384
